System: 317291-083-R-J1-PDC complex spheroid growth;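 also: compound exposure lasted seven days after spheroids formed for three days; 100% = DMSO vehicle control wells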
Experiment: Anticancer human tumor 317291-083-R-J1-PDC patient-derived soft tissue sarcoma cell line growth inhibition [Asc]
Conditions: second compound 1 µM; first compound 0.00949 µM; hits give low values

compound: NC(=O)C(=Cn1cnc(-c2cc(C(F)(F)F)cc(C(F)(F)F)c2)n1)c1cncnc1 + Cc1c(S(C)(=O)=O)c(-c2cc(F)cc(N3CCN(c4ccc(NS(=O)(=O)c5ccc(NC(CCN6CCC(C(=O)OCCCP(=O)(O)O)CC6)CSc6ccccc6)c(S(=O)(=O)C(F)(F)F)c5)cc4)CC3)c2)c(-c2ccc(Cl)cc2)n1C(C)C
measured.target: 317291-083-R-J1-PDC complex spheroid growth;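 also: compound exposure lasted seven days after spheroids formed for three days; 100% = DMSO vehicle control wells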
viability, T/C (%): 69.8
--
compound: Cc1nc(N2CCC3(CC2)COC(C)C3N)c(CO)nc1Sc1ccnc(N)c1Cl (stereo not drawn) + Cc1c(S(C)(=O)=O)c(-c2cc(F)cc(N3CCN(c4ccc(NS(=O)(=O)c5ccc(NC(CCN6CCC(C(=O)OCCCP(=O)(O)O)CC6)CSc6ccccc6)c(S(=O)(=O)C(F)(F)F)c5)cc4)CC3)c2)c(-c2ccc(Cl)cc2)n1C(C)C
measured.target: 317291-083-R-J1-PDC complex spheroid growth;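 also: compound exposure lasted seven days after spheroids formed for three days; 100% = DMSO vehicle control wells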
viability, T/C (%): 93.7
--
compound: CCN1C(C(=O)NC23CCC(C(=O)O)(CC2)CC3)C(c2cccc(Cl)c2F)C2(C(=O)Nc3cc(Cl)ccc32)C12CCCCC2 (stereo not drawn) + Cc1c(S(C)(=O)=O)c(-c2cc(F)cc(N3CCN(c4ccc(NS(=O)(=O)c5ccc(NC(CCN6CCC(C(=O)OCCCP(=O)(O)O)CC6)CSc6ccccc6)c(S(=O)(=O)C(F)(F)F)c5)cc4)CC3)c2)c(-c2ccc(Cl)cc2)n1C(C)C
measured.target: 317291-083-R-J1-PDC complex spheroid growth;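 also: compound exposure lasted seven days after spheroids formed for three days; 100% = DMSO vehicle control wells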
viability, T/C (%): 92.2
